Values were extracted from patent US12404260B2.

Field: IC50. Provide a value for each of the molecules that follow.
Biological target: full-length MALT1 protein (Strep-MALT1(1-824)-His) (Homo sapiens, UniProt Q9UDY8)
Sequence (Q9UDY8 1-824): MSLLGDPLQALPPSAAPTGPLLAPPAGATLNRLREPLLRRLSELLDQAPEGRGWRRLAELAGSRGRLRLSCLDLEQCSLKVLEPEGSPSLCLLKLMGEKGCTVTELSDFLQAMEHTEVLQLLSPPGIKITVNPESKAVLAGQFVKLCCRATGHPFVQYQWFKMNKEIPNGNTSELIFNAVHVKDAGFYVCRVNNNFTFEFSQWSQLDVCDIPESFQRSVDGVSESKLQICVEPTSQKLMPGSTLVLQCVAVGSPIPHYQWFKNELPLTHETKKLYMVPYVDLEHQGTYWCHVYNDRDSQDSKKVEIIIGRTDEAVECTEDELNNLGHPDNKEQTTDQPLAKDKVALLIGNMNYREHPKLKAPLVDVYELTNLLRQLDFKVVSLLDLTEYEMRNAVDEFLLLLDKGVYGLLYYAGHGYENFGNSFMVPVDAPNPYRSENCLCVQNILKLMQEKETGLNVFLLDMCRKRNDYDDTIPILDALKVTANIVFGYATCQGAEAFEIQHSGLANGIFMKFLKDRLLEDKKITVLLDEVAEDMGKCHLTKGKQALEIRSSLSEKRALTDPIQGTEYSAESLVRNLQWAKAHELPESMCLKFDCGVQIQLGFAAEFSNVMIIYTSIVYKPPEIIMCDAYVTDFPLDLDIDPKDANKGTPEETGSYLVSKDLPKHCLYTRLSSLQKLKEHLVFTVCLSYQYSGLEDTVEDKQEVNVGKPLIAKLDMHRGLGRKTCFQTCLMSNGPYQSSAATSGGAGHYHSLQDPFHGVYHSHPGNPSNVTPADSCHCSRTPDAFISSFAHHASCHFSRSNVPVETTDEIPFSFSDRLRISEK
Express your answer in µM, writing the number without its unit.

[Q] Endpoint output: IC50 of `CO[C@H](C)c1c(NC(=O)Nc2cnc(-n3nccn3)c(Cl)c2)cnc(C)c1C#N` . Value?
[A] 0.22

[Q] So what does the record say about IC50 for COC(C)c1c(NC(=O)Nc2cnc(-n3nccn3)c(Cl)c2)cnc(C2CC2)c1Br (stereo not shown) ?
[A] 8.71
